# system_name: human ether-à-go-go-related gene (hERG) potassium channel (human, UniProt Q12809)
# Sequence (Q12809 whole entry, looked up): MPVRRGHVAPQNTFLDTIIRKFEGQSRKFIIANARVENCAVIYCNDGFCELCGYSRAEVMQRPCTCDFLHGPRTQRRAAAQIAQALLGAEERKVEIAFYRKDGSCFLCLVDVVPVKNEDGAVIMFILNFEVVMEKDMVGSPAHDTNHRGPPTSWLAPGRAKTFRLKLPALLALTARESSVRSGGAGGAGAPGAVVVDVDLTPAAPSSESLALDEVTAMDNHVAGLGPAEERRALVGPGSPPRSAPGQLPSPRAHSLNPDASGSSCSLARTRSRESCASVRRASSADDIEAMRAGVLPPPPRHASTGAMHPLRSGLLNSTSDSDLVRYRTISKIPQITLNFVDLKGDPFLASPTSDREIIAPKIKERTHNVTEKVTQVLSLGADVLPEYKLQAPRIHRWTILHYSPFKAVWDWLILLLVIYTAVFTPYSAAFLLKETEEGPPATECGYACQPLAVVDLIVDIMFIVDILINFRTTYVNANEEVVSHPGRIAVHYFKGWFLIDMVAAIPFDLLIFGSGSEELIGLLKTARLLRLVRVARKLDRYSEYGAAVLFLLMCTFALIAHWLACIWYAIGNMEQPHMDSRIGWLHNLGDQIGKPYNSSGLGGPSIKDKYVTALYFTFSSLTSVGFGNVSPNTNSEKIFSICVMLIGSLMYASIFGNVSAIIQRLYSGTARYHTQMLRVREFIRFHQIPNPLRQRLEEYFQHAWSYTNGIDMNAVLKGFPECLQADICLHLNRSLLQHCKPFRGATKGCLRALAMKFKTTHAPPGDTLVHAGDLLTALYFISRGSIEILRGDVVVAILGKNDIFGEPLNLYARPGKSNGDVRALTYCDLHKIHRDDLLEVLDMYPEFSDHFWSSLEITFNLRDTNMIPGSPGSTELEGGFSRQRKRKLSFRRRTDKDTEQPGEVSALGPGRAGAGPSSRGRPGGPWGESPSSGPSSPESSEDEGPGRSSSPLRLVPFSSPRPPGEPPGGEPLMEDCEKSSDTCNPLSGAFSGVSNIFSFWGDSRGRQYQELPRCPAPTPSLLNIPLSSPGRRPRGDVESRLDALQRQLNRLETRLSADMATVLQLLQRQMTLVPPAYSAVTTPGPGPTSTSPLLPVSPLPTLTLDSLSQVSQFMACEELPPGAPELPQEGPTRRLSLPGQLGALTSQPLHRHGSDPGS
# procedure_text: primary screen, population patch clamp on CHO cells stably expressing hERG; higher = less effect of the substance
# Method: Briefly, Chinese hamster ovary (CHO) cells stably expressing the hERG channel were dislodged from tissue culture flasks and dispensed into PPC plates. […] During the recording, background leak currents were estimated by a 100 ms step to -80 mV from an initial holding potential of -70 mV and subtracted from the subsequent current measurement. The campaign was conducted in two phases using slight differences in recording protocol. […]
Screen size: about 310,000 compounds; about 14,000 (4.5%) showed an effect of 50% or more. Effects have a minus sign here. The sample as a whole holds a higher share of strong results than the screen did.
property_label: hERG current change (%, negative = inhibition) at 10uM

Consider the reported hERG current change (%, negative = inhibition) at 10uM for these compounds:
compound	system_name	obs_value
O=C(NC1CC2CCC(C1)N2Cc1ccccc1)c1ccccc1Cl (centres unmarked)	human ether-à-go-go-related gene (hERG) potassium channel (human, UniProt Q12809)	-40.6%
CC(C)(C)N=Cc1cc(-c2ccccc2)sc1O	human ether-à-go-go-related gene (hERG) potassium channel (human, UniProt Q12809)	-17.2%
COc1cc(NC(=O)CSc2nnnn2-c2ccccc2)cc(OC)c1OC	human ether-à-go-go-related gene (hERG) potassium channel (human, UniProt Q12809)	-0.308%
O=C(NC1CC2CCC(C1)N2Cc1ccccc1)c1cccc(F)c1 (centres unmarked)	human ether-à-go-go-related gene (hERG) potassium channel (human, UniProt Q12809)	-60.5%
O=C(NC1CC2CCCC(C1)N2Cc1ccccc1)c1cccc(Cl)c1 (centres unmarked)	human ether-à-go-go-related gene (hERG) potassium channel (human, UniProt Q12809)	-57.9%

Ask: Give its hERG current change (%, negative = inhibition) at 10uM value. Item: `O=C(NC1CCCC1)c1cccc(Cl)c1`
Result: 29.8%

Ask: Entry `COc1ccc(CNC(=O)c2cc(=O)c3cc(C)c(C)cc3o2)cc1` please
Result: 19.3%

Ask: Entry `CCSc1nnc(NC(=O)Cc2cc(OC)c(OC)c(OC)c2)s1` please
Result: 8.27%

Ask: Entry CCCCN1C2CCCC1CC(NC(=O)c1cccc(OC)c1)C2 (centres unmarked) please
Result: -19.3%

Ask: Entry `CCc1nc(-c2ccccc2)cc(=O)[nH]1` please
Result: -6.29%

Ask: Entry Cc1cccc(C(=O)NC2CC3CCCC(C2)N3Cc2ccccc2)c1 (centres unmarked) please
Result: -40.9%

---

# system_name: human ether-à-go-go-related gene (hERG) potassium channel (human)
# procedure_text: primary screen, population patch clamp on CHO cells stably expressing hERG; higher = less effect of the substance
The campaign covered roughly 310,000 compounds. About 14,000 (4.5%) showed an effect of 50% or more. Effects have a minus sign here. The full list was thinned out, with strong results kept by preference.
property_label: hERG current change (%, negative = inhibition) at 10uM (%)
The answer is to be given in %; state only the numeric part.

Consider the reported hERG current change (%, negative = inhibition) at 10uM for these molecules:
molecule	measurement_units	obs_value
O=C(c1cc(COc2ccc(F)cc2Cl)on1)N(Cc1ccncc1)CC1CCCO1 (centres unmarked)	%	-60.7
OCC(O)CSc1nc(-c2ccccc2)nc2c1CCC2 (centres unmarked)	%	2.22
C/C(=N\NC(=O)c1ccc2c(c1)OCO2)c1ccc(O)cc1	%	13.1
NC(=O)CSc1nc(-c2ccccc2)nc2c1CCCC2	%	5.92

Now for another entry.
Ask: Quick check: hERG current change (%, negative = inhibition) at 10uM on human ether-à-go-go-related gene (hERG) potassium channel (human), item `COc1cc(CNCC(C)C)c(Br)cc1OCC(=O)NCc1ccccc1` ?
Result: -10.7

---

# system_name: human ether-à-go-go-related gene (hERG) potassium channel (human);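 note: peak tail current of the secondary pulse compared with the same well before compound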
# procedure_text: primary screen, population patch clamp on CHO cells stably expressing hERG; higher = less effect of the substance
Out of some 310,000 compounds screened, about 14,000 (4.5%) showed an effect of 50% or more. The effect is printed as a negative number. Only a selection was taken, and strong results are over-represented in it overall.
property_label: hERG current change (%, negative = inhibition) at 10uM (%)
The answer is to be given in %; state only the numeric part.

compound	measurement_units	obs_value
COc1cccc(N2CCN(C(=O)c3ccc(CS(=O)Cc4ccc(C)cc4)o3)CC2)c1 (centres unmarked)	%	-11.4
CC(=O)N1c2ccc(S(=O)(=O)NCC3CCC(C(=O)NCc4ccc(C)o4)CC3)cc2CC1C (centres unmarked)	%	-3.13

Ask: Give its hERG current change (%, negative = inhibition) at 10uM value. Item: `CN(C)c1ccc(NS(=O)(=O)c2ccc(-c3csnn3)cc2)cc1`
Result: 13.1

Ask: Entry Cc1ccc(CS(=O)Cc2ccc(C(=O)N3CCN(c4ccc(F)cc4)CC3)o2)cc1 (centres unmarked) please
Result: -52.9

Ask: Entry CCN1C(=O)C(CC(=O)Nc2ccc(F)cc2)N(CCc2ccc(OC)cc2)C1=S (centres unmarked) please
Result: -0.637

---

# system_name: human ether-à-go-go-related gene (hERG) potassium channel (human, UniProt Q12809);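 note: peak tail current of the secondary pulse compared with the same well before compound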
# procedure_text: primary screen, population patch clamp on CHO cells stably expressing hERG; higher = less effect of the substance
In all, about 310,000 compounds went through this assay and about 14,000 (4.5%) showed an effect of 50% or more. Effects have a minus sign here. For the sample, strong results were picked, then their nearest neighbours and some compounds at random.
Please use the following hERG current change (%, negative = inhibition) at 10uM ranges when assigning a class: group 1 (below -30%), group 2 (-30% to below -10%), group 3 (-10% or more)

compound	label_value
COC(=O)c1ccc(CN2CCC(Oc3ccc(C(=O)N4CCCCC4)cc3)CC2)cc1	group 1
Nc1ncncc1-c1ccc2ccccc2c1	group 3
CN(CC(=O)Nc1ccccc1Br)C(=O)c1ccccc1-c1nc2ccccc2s1	group 2
CCOc1cccc(CN2CCC(Oc3ccc(C(=O)N4CCCC4)cc3)CC2)c1	group 2
CCOc1ccc(N2C(=O)C3C(c4ccc(O)cc4)NC(CCSC)(C(=O)OC)C3C2=O)cc1 (stereo not shown)	group 2
CCc1ccc(CN2CCC(Oc3ccc(C(=O)N4CCCC4)cc3)CC2)cc1	group 1
COc1ccc(CCNC(=O)C2=CC=CN3CCS(=O)(=O)N=C23)cc1	group 3
CC(O)c1c(OCc2ccccc2)ncnc1OCc1ccccc1 (stereo not shown)	group 2

Ask: Please report the category associated with CCc1ccc(N(C(=O)c2csnn2)C(C(=O)NC2CCCC2)c2cccnc2)cc1 (stereo not shown) , nothing else.
Result: group 2

Ask: Entry `COc1ccc(Oc2ncnc3sccc23)cc1` please
Result: group 3

---

# system_name: human ether-à-go-go-related gene (hERG) potassium channel (human, UniProt Q12809);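 note: peak tail current of the secondary pulse compared with the same well before compound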
# procedure_text: primary screen, population patch clamp on CHO cells stably expressing hERG; higher = less effect of the substance
The campaign covered roughly 310,000 compounds. About 14,000 (4.5%) showed an effect of 50% or more. Effects have a minus sign here. This excerpt belongs to a sample that is enriched for strong results.
property_label: hERG current change (%, negative = inhibition) at 10uM (%)
The answer is to be given in %; state only the numeric part.

compound	measurement_units	obs_value
COc1ccc(NC(=O)C(=O)NCCN2CCN(C(=O)c3ccc(C)cc3)CC2)cc1	%	-75.4

Ask: Give its hERG current change (%, negative = inhibition) at 10uM value. Item: `CCCCCCn1c(SCCCC)nc2c1c(=O)[nH]c(=O)n2C`
Result: 1.97

Ask: Entry `CN(C)S(=O)(=O)n1cnc([C@H]2c3c(ncn3Cc3ccccc3)C[C@H]3COC(=O)[C@@H]32)c1` please
Result: -4.15

Ask: Entry `COC(=O)CSc1nc2c(c(=O)[nH]c(=O)n2C)n1CCC(C)C` please
Result: -3.93

Ask: Entry `CCCCCCn1c(SCCC)nc2c1c(=O)[nH]c(=O)n2C` please
Result: -9.85

Ask: Entry CCCCCn1c(SC(C)C(C)=O)nc2c1c(=O)[nH]c(=O)n2C (stereo not shown) please
Result: -92.5

---

# system_name: human ether-à-go-go-related gene (hERG) potassium channel (human, UniProt Q12809);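 note: peak tail current of the secondary pulse compared with the same well before compound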
# procedure_text: primary screen, population patch clamp on CHO cells stably expressing hERG; higher = less effect of the substance
# Protocol: Briefly, Chinese hamster ovary (CHO) cells stably expressing the hERG channel were dislodged from tissue culture flasks and dispensed into PPC plates. […] During the recording, background leak currents were estimated by a 100 ms step to -80 mV from an initial holding potential of -70 mV and subtracted from the subsequent current measurement. The campaign was conducted in two phases using slight differences in recording protocol. […]
The whole screen tested about 310,000 compounds, of which about 14,000 (4.5%) showed an effect of 50% or more. Effects have a minus sign here. This excerpt belongs to a sample that is enriched for strong results.
property_label: hERG current change (%, negative = inhibition) at 10uM

Consider the reported hERG current change (%, negative = inhibition) at 10uM for these compounds:
compound	system_name	obs_value
COc1ccc(OC)c(C2=NOC(C(=O)Nc3cccnc3)C2)c1 (centres unmarked)	human ether-à-go-go-related gene (hERG) potassium channel (human, UniProt Q12809)	-9.42%
CCN(CC)C(=O)c1c(NC(=O)c2ccccc2)sc(C)c1C	human ether-à-go-go-related gene (hERG) potassium channel (human, UniProt Q12809)	-6.01%
Cc1ccc(S(=O)(=O)N2CCN(c3nccnc3C#N)CC2)cc1	human ether-à-go-go-related gene (hERG) potassium channel (human, UniProt Q12809)	-54.8%
COc1ccc(C2=Nn3c(nnc3-c3ccncc3)SC2)cc1	human ether-à-go-go-related gene (hERG) potassium channel (human, UniProt Q12809)	-41.1%
Cc1ccc(S(=O)(=O)N2CCN(c3ccccn3)CC2)cc1	human ether-à-go-go-related gene (hERG) potassium channel (human, UniProt Q12809)	4.96%
COc1cc(C(CC(=O)N2CCCC2)c2c(OC)cc(OC)c3c(-c4ccccc4)cc(=O)oc23)cc(OC)c1OC (centres unmarked)	human ether-à-go-go-related gene (hERG) potassium channel (human, UniProt Q12809)	-10.5%
O=C(CN1CCC(n2nnc3ccccc32)CC1)Nc1ccc2c(c1)CCC2	human ether-à-go-go-related gene (hERG) potassium channel (human, UniProt Q12809)	-39.3%
Cc1cc(Cl)ccc1Oc1ncnc2oc(-c3ccccc3)cc12	human ether-à-go-go-related gene (hERG) potassium channel (human, UniProt Q12809)	-0.172%
COc1ccc(C2=Nn3c(nnc3-c3ccccn3)SC2)cc1	human ether-à-go-go-related gene (hERG) potassium channel (human, UniProt Q12809)	-34.3%
Cc1cc(-c2nnc3n2N=C(c2ccccc2)CS3)n[nH]1	human ether-à-go-go-related gene (hERG) potassium channel (human, UniProt Q12809)	-22.7%

Ask: Quick check: hERG current change (%, negative = inhibition) at 10uM on human ether-à-go-go-related gene (hERG) potassium channel (human, UniProt Q12809), item CC1CC(C#N)N(N(C)C)C1=C(C#N)C#N (centres unmarked) ?
Result: 11.3%

Ask: Entry `CCOc1ccc(C2=Nn3c(nnc3-c3ccc(OC)cc3)SC2)cc1` please
Result: -16%

Ask: Entry `CC(=O)Nc1ccc(S(=O)(=O)Nc2ccc3c(c2)OCCO3)cc1Cl` please
Result: 15.5%

Ask: Entry `O=C(CN1CCC(n2nnc3cc(C(F)(F)F)ccc32)CC1)NCc1cccs1` please
Result: -74.5%

Ask: Entry O=CN1CCN(C(C(=O)NC2CCCC2)c2ccc(Cl)cc2)CC1 (centres unmarked) please
Result: -14.8%
